System: 276233-004-R-J1-PDC complex spheroid viability;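 note: spheroids exposed to drugs for seven days; 100% = DMSO vehicle control viability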
Assay: Anticancer human tumor 276233-004-R-J1-PDC patient-derived colon adenocarcinoma cell line growth inhibition [GQUAD]
Conditions: second compound 0.1 µM; first compound 0.0316 µM; stronger effect = lower value
parameter: viability, T/C

C=CC(=O)N1CCN(c2nc(=O)n(-c3c(C)ccnc3C(C)C)c3nc(-c4c(O)cccc4F)c(F)cc23)C(C)C1 (stereo unspecified) + Cc1cnc(CNC(=O)c2c(=O)c3ccc(N4CCCN(C)CC4)nc3n3c2sc2ccccc23)cn1	93.6%
CCc1c2c(nc3ccc(O)cc13)-c1cc3c(c(=O)n1C2)COC(=O)[C@]3(O)CC + Cc1[nH]c2ccc(F)cc2c1-c1nc2c3cccnc3c3ncccc3c2[nH]1	97.5%

Recorded viability, T/C of COc1cccc2c1C(=O)c1c(O)c3c(c(O)c1C2=O)CC(O)(C(=O)CO)CC3OC1CC(N)C(O)C(C)O1 (stereo unspecified) + CN(C)c1ccc(Nc2c3ccc(NC(=O)CCN4CCCC4)cc3nc3cc(NC(=O)CCN4CCCC4)ccc23)cc1 , please.
102%

Recorded viability, T/C of CC1COCCN1c1cc(C2(O)CC3CCC(C2)O3)c2cnn(-c3ccn[nH]3)c2n1 (stereo unspecified) + CN(C)c1ccc(Nc2c3ccc(NC(=O)CCN4CCCC4)cc3nc3cc(NC(=O)CCN4CCCC4)ccc23)cc1 , please.
77.4%

Recorded viability, T/C of O=C(NO)c1cnc(N2CCN(S(=O)(=O)c3ccc4ccccc4c3)CC2)nc1 + CN(C)c1ccc(Nc2c3ccc(NC(=O)CCN4CCCC4)cc3nc3cc(NC(=O)CCN4CCCC4)ccc23)cc1 , please.
77.9%

Recorded viability, T/C of C#Cc1c(F)ccc2cc(O)cc(-c3ncc4c(N5CC6CCC(C5)N6)nc(OCC56CCCN5CC(F)C6)nc4c3F)c12 (stereo unspecified) + Cc1[nH]c2ccc(F)cc2c1-c1nc2c3cccnc3c3ncccc3c2[nH]1 , please.
80.2%

Recorded viability, T/C of COc1ncnc(C2CC2)c1-c1ncc2cnn(Cc3ccc(-c4nc(C(F)(F)F)cn4C(C)C)cc3)c2n1 + CN(C)c1ccc(Nc2c3ccc(NC(=O)CCN4CCCC4)cc3nc3cc(NC(=O)CCN4CCCC4)ccc23)cc1 , please.
70.4%
